System: Botulinum neurotoxin type A light chain protease (Clostridium botulinum A str. ATCC 3502)
Test: BoNT/A light chain protease inhibitors, primary screen, biochemical, flow cytometry, MLPCN library (AID 588499); further: plate controls were buffer without enzyme for full effect and enzyme alone for no effect
Settings: multiplex microsphere protease substrate cleavage, at 10 µM, stronger effect = higher value
The whole screen tested about 360,000 compounds, of which about 610 (0.17%) were called active. Inconclusive results (about 2%) are left out. Shown is part of a subset that was picked to be rich in actives.

# molecule_smiles, result_unit, inhibition
measured = [
    ("CCCOc1cccc(C(=O)Nc2ccccc2C(=O)N2CCN(C)CC2)c1", "%", -2.3),
    ("O=C(Nc1ccc2cn[nH]c2c1)c1ccc(S(=O)(=O)N2CCOCC2)cc1", "%", -1.3),
    ("Cc1cc([N+](=O)[O-])nn1Cc1ccc(F)cc1", "%", -0.3),
    ("C[C@H]1COc2cc(N3CCSCC3)ccc2S(=O)(=O)N1", "%", 1.1),
]

====

System: Botulinum neurotoxin type A light chain protease (Clostridium botulinum A str. ATCC 3502)
Assay: BoNT/A light chain protease inhibitors, primary screen, biochemical, flow cytometry, MLPCN library (AID 588499); further: plate controls were buffer without enzyme for full effect and enzyme alone for no effect
Conditions: multiplex microsphere protease substrate cleavage, at 10 µM, stronger effect = higher value
Screen size: about 360,000 compounds; about 610 (0.17%) were called active. Another 2% or so got no clear call; they are omitted. The sample as a whole holds a higher share of actives than the screen did.
Reported inhibition values for the following compounds.

# compound, inhibition (%)
rows = [
    ("O=C1CSC(c2cccc(F)c2)N1c1ccccc1F (stereo not drawn)", -0.9),
    ("CCOc1ncccc1C(=O)OCC(=O)NC1CC1", -0.4),
    ("Cc1nc(C(F)(F)F)ccc1C(=O)N1CCC1(C)C(=O)NS(=O)(=O)c1ccccc1 (stereo not drawn)", -0.7),
    ("CCOCC(=O)NCc1ccc2c(c1)cc(C)n2C", 6),
    ("O=C1OCC2=C1C(c1ccccc1)CC(=O)N2c1cccc(F)c1 (stereo not drawn)", -1.3),
    ("COc1ccc(CCNC(=O)C2CC3Cn4c(nc5cc(C)c(C)cc54)C3N2C)cc1 (stereo not drawn)", -0.2),
    ("CCOC(=O)c1cc2c(=O)n3ccccc3nc2n(CC(C)C)c1=NC(=O)c1c(-c2c(F)cccc2Cl)noc1C", 60.3),
    ("CCCn1nnc2sc3c(c2c1=O)CCC(C)C3 (stereo not drawn)", 0.3),
    ("Cc1ccc(CNC(=O)C(=O)c2cn(CC(=O)N3CCCC3)c3ccccc23)cc1", 0),
    ("COc1cc(C(=O)NCc2ccc3c(c2)cc(C)n3C)cc(OC)c1OC", 74.1),
    ("O=C(NCc1ccco1)C(=O)c1cn(CC(=O)N2CCCCCC2)c2ccccc12", 10.2),
    ("Cc1cccc2cc3c(N)c(C(=O)N4CCCc5ccccc54)sc3nc12", 54.5),
    ("O=c1c2[nH]c3ccc(Cl)cc3c2ncn1Cc1ccccn1", 1),
    ("CCN(CC)C(=O)CSC1c2ccccc2C(=O)N1c1ccccc1 (stereo not drawn)", -1.6),
    ("Cc1onc(-c2c(F)cccc2Cl)c1C(=O)OCC(=O)N1C(C)CCCC1C (stereo not drawn)", 0.1),
    ("CCc1nc2c(OCC(=O)C(C)(C)C)cccn2c1N(C)C(=O)c1ccccc1F", -0.5),
    ("Cc1cccc(-n2c(SCC(N)=O)nc3c(c2=O)C2(CCCCC2)Cc2ccccc2-3)c1", -0.1),
    ("CN1C=CC=C/C1=C1\\SC(=S)N(Cc2ccccc2)C1=O", -1.8),
    ("COc1ccc(/C(=N\\O)c2nccc3cc(OC)c(OC)cc23)cc1OC", -0.2),
    ("CCOc1ncccc1C(=O)OCC(=O)c1c[nH]c2ccccc12", 36.8),
    ("CCCCCCN1CCN(C2CN(Cc3cn(CCCCCC)nn3)S(=O)(=O)C2)CC1 (stereo not drawn)", -0.3),
    ("O=C(c1c(Cl)nc2sccn12)N1CCCc2ccccc21", 0),
    ("COC(=O)[C@]12CCCCC=C1N(Cc1ccco1)C(=O)[C@H](CC(=O)NCC1CCCCC1)C2", -1.1),
    ("c1csc(-c2nnc(COc3ccc4c(c3)OCO4)o2)c1", -0.4),
    ("Cc1c(CC(=O)N2CCN(C(=O)C3COc4ccccc4O3)CC2)c(=O)oc2c(O)c(O)ccc12 (stereo not drawn)", 3.7),
    ("O=C1[C@@H]2C(c3cccnc3)=NO[C@@H]2C(=O)N1c1ccc(Cl)cc1Cl", -0.1),
    ("CC1CCc2c(sc3nc4n(c(=O)c23)CCS4)C1 (stereo not drawn)", 52.4),
    ("CC1(C)c2[nH]c3ccccc3c2C[C@H]2C(=O)N(N)CC(=O)N21", -1.4),
]

====

System: Botulinum neurotoxin type A light chain protease (Clostridium botulinum A str. ATCC 3502)
Test: BoNT/A light chain protease inhibitors, primary screen, biochemical, flow cytometry, MLPCN library (AID 588499); further: plate controls were buffer without enzyme for full effect and enzyme alone for no effect
Settings: multiplex microsphere protease substrate cleavage, at 10 µM
Screen size: about 360,000 compounds; about 610 (0.17%) were called active. Not shown: some 2% with an inconclusive outcome. Cut-off read from the data, not from the text of the source: active = inhibition above about 30%; inconclusive = no clear call, values can overlap the other calls; inactive = below that. What follows is part of a selection rich in actives, with near analogues and random picks from the rest.
Classes used: true (1) for active, false (0) for inactive

# compound, assigned_class
measured = [
    ("CC(C)C(C)(C#N)NC(=O)CSc1nncn1-c1ccccc1 (stereo unspecified)", "false (0)"),
    ("NC(=O)c1ccc(N2CCCC2)nc1", "false (0)"),
    ("N#Cc1ccc(N2Cc3ccccc3/C2=N/C(=O)Nc2ccc(Cl)cc2)cc1", "false (0)"),
    ("Cn1nc(N)c2ncc(C(Cl)(Cl)Cl)nc21", "false (0)"),
    ("COc1cc(-c2nnc(Cn3cc(C(F)(F)F)ccc3=O)o2)cc(OC)c1OC", "false (0)"),
    ("NC(CSC12CC3CC(CC(C3)C1)C2)C(=O)O (stereo unspecified)", "false (0)"),
    ("Cc1ccc(C)c(NC(=O)CN(C)C(=O)COc2ccc3ccccc3c2)c1", "false (0)"),
    ("Cc1cc(C)c2c(c1)cc(C)c1nnc(SCC(=O)Nc3cc(C)on3)n12", "false (0)"),
    ("COc1ccc(C2OC(CCc3ccccc3)Cc3[nH]c(=S)[nH]c(=O)c32)cc1 (stereo unspecified)", "false (0)"),
    ("COc1ccc(NC(=O)COc2ccc(C(=O)c3ccc(F)cc3)cc2)cc1S(N)(=O)=O", "false (0)"),
    ("O=C(O)c1ccc2c(=O)n3c(nc2c1)/C(=C/c1ccc(OC(F)F)cc1OC(F)F)CC3", "false (0)"),
    ("CCC(=O)N(C)C(c1ccccc1Cl)c1nnnn1-c1c(C)cccc1C (stereo unspecified)", "false (0)"),
    ("Nc1nc2c(ncn2[C@@H]2O[C@H](CNCc3ccc(OCCCN4CCOCC4)cc3)[C@@H](O)[C@H]2O)c(=O)[nH]1", "false (0)"),
    ("CC1CCCCC12NC(=O)N(CC(=O)Nc1ccc(S(=O)(=O)Nc3ncccn3)cc1)C2=O (stereo unspecified)", "false (0)"),
    ("CNC(=O)Nc1cc(C(C)(C)C)no1", "false (0)"),
    ("Cc1ccc(NC(=O)COc2ccc(-n3ccnc3)cc2)cc1Cl", "false (0)"),
    ("Fc1cccc(Cc2c(-c3cccc(Cl)c3)nc3ccc(Br)cn23)c1", "false (0)"),
    ("O=C1/C(=C/c2ccc(F)cc2)SC(=S)N1NS(=O)(=O)c1ccccc1", "false (0)"),
    ("COC(=O)c1ccc2nc(-c3ccc(C)cc3)c(Cc3ccc(OC)cc3C)n2c1", "false (0)"),
    ("O=c1c(-c2ccccc2Cl)c[nH]n1-c1ccccc1", "false (0)"),
    ("COC(=O)c1ccc(CN2CCCC(C(=O)Nc3cccc(-n4cnnn4)c3)C2)cc1 (stereo unspecified)", "false (0)"),
    ("CN1CCN(C(=O)c2ccc(NC(=O)c3ccc(Br)o3)cc2)CC1", "false (0)"),
    ("CC(=NNC(=S)N1CCCCCC1)c1ccccn1", "true (1)"),
    ("COc1ccc(/C=C/C(=O)c2c(O)cc(OC)cc2OC)cc1", "false (0)"),
    ("CCN1CCN(c2ccc(S(=O)(=O)N3CCCCC3)cc2NC(=O)Cc2c(Cl)cccc2Cl)CC1", "false (0)"),
    ("COc1ccc(NC(=O)NN2CCN(C)CC2)c(OC)c1", "false (0)"),
]
